Give MIC for every item shown.
- System: Bacillus spizizenii
- PROTOCOL DETAILS: Antibacterial activity against Bacillus subtilis ATCC 6633 by micro broth dilution method
- Format: functional
Give bare numbers, in µg/mL.

Observe how each entry below is paired with its result.
test_smiles=CCCCCCn1c(CN2CCN(c3cc4c(cc3F)c(=O)c(C(=O)O)cn4CC)CC2)nc2ccccc21 attribute_measured=MIC number=16
test_smiles=CCn1cc(C(=O)O)c(=O)c2cc(F)c(N3CCN(Cc4nc5ccc(Cl)cc5[nH]4)CC3)cc21 attribute_measured=MIC number=16
test_smiles=CCn1cc(C(=O)O)c(=O)c2cc(F)c(N3CCN(c4nc5ccccc5[nH]4)CC3)cc21 attribute_measured=MIC number=2

Turning now to a further compound:
Lab entry: Bacillus spizizenii assay, compound `CCn1cc(C(=O)O)c(=O)c2cc(F)c(N3CCN(Cc4nc5ccccc5n4Cc4ccc(F)cc4)CC3)cc21` , MIC = 8

---

- Test system: Escherichia coli
- PROTOCOL DETAILS: Antibacterial activity against Escherichia coli DH52 by micro broth dilution method
- Type: functional
ATTRIBUTE MEASURED: MIC (mg/L)
One number for each entry, in mg/L.

Observe how each entry below is paired with its result.
molecule="NC1CCN(c2c(F)cc3c(=O)c(C(=O)O)cn(C4CC4)c3c2Cl)C1 (centres undefined) [CLINAFLOXACIN]" attribute_measured=MIC number=0.5
molecule=CCn1cc(C(=O)O)c(=O)c2cc(F)c(N3CCN(Cc4nc5ccccc5n4Cc4ccc(Cl)cc4Cl)CC3)cc21 attribute_measured=MIC number=1
molecule=CCn1cc(C(=O)O)c(=O)c2cc(F)c(N3CCN(Cc4nc5ccccc5n4Cc4ccc(F)cc4)CC3)cc21 attribute_measured=MIC number=32

Turning now to a further molecule:
Value of measured MIC for the entry `CCCCCn1c(CN2CCN(c3cc4c(cc3F)c(=O)c(C(=O)O)cn4C3CC3)CC2)nc2ccccc21` : 1

---

Give MIC80 for every item shown.
- PROTOCOL DETAILS: Antifungal activity against Candida mycoderma ATCC 9888 after 24 hrs by micro broth dilution method
- Type: functional
- EXPERIMENTAL CONTEXT: Candida vini
Answers are plain numbers, in µg/mL.

test_smiles=CCn1cc(C(=O)OC)c(=O)c2cc(F)c(N3CCN(/C=N\c4nc5ccccc5[nH]4)CC3)cc21 unit_info=µg/mL number=128
test_smiles=CCn1c(CN2CCN(c3cc4c(cc3F)c(=O)c(C(=O)O)cn4C3CC3)CC2)nc2ccccc21 unit_info=µg/mL number=2
test_smiles=CCn1cc(C(=O)O)c(=O)c2cc(F)c(N3CCN(Cc4nc5ccccc5n4Cc4ccc([N+](=O)[O-])cc4)CC3)cc21 unit_info=µg/mL number=16
test_smiles=CCCCCCCCCCCCCCCCCCn1c(CN2CCN(c3cc4c(cc3F)c(=O)c(C(=O)O)cn4CC)CC2)nc2ccccc21 unit_info=µg/mL number=64
test_smiles=CCn1cc(C(=O)O)c(=O)c2cc(F)c(N3CCN(Cc4nc5ccc([N+](=O)[O-])cc5[nH]4)CC3)cc21 unit_info=µg/mL number=8

Each compound below has a reported value. Please supply its MIC80.
1. CCn1cc(C(=O)O)c(=O)c2cc(F)c(N3CCN(Cc4nc5ccccc5n4Cc4ccccc4Cl)CC3)cc21
2. CCCCCn1c(CN2CCN(c3cc4c(cc3F)c(=O)c(C(=O)O)cn4C3CC3)CC2)nc2ccccc21
3. CCCCCCn1c(CN2CCN(c3cc4c(cc3F)c(=O)c(C(=O)O)cn4CC)CC2)nc2ccccc21

Return:
1. 0.5
2. 2
3. 8

---

- Test system: Pseudomonas aeruginosa
- PROTOCOL DETAILS: Antibacterial activity against Pseudomonas aeruginosa ATCC 27853 by micro broth dilution method
- Format: functional
Give MIC for every item shown.
Give bare numbers, in µg/mL.

compound=CCn1cc(C(=O)O)c(=O)c2cc(F)c(N3CCN(Cc4nc5ccc(Br)cc5[nH]4)CC3)cc21 number=2
compound=CCn1cc(C(=O)O)c(=O)c2cc(F)c(N3CCN(c4nc5ccccc5[nH]4)CC3)cc21 number=2
compound=CCn1cc(C(=O)O)c(=O)c2cc(F)c(N3CCN(CNc4nc5ccccc5[nH]4)CC3)cc21 number=1
compound=CCCCCCCCCCCCCCCCCCn1c(CN2CCN(c3cc4c(cc3F)c(=O)c(C(=O)O)cn4CC)CC2)nc2ccccc21 number=256

Each compound below has a reported value. Please supply its MIC.
1. CCn1cc(C(=O)O)c(=O)c2cc(F)c(N3CCN(Cc4nc5ccccc5n4Cc4ccccc4F)CC3)cc21
2. O=C(O)c1cn(C2CC2)c2cc(N3CCN(Cc4nc5ccccc5n4Cc4ccccc4F)CC3)c(F)cc2c1=O
3. O=C(O)c1cn(C2CC2)c2cc(N3CCN(Cc4nc5ccccc5n4Cc4cccc(F)c4)CC3)c(F)cc2c1=O
4. CCCCCn1c(CN2CCN(c3cc4c(cc3F)c(=O)c(C(=O)O)cn4CC)CC2)nc2ccccc21
5. O=C(O)c1cn(C2CC2)c2cc(N3CCN(Cc4nc5ccc(Cl)cc5[nH]4)CC3)c(F)cc2c1=O
6. NC1CCN(c2c(F)cc3c(=O)c(C(=O)O)cn(C4CC4)c3c2Cl)C1 (stereo unspecified) [CLINAFLOXACIN]

Return:
1. 512
2. 2
3. 16
4. 64
5. 0.5
6. 0.5

---

Give MIC for every item shown.
- System: Pseudomonas aeruginosa
- PROTOCOL DETAILS: Antibacterial activity against Pseudomonas aeruginosa ATCC 27853 by micro broth dilution method
- Type: functional
A bare number is not enough; add the unit after it.

Observe how each entry below is paired with its result.
test_smiles=CCCCCCCCn1c(CN2CCN(c3cc4c(cc3F)c(=O)c(C(=O)O)cn4C3CC3)CC2)nc2ccccc21 attribute_measured=MIC result="1 µg/mL"
test_smiles=CCn1cc(C(=O)O)c(=O)c2cc(F)c(N3CCN(Cc4nc5ccccc5[nH]4)CC3)cc21 attribute_measured=MIC result="1 µg/mL"
test_smiles=O=C(O)c1cn(C2CC2)c2cc(N3CCN(Cc4nc5ccc(F)cc5[nH]4)CC3)c(F)cc2c1=O attribute_measured=MIC result="2 µg/mL"

Turning now to a further compound:
Lab entry: Pseudomonas aeruginosa assay, compound `CCn1c(CN2CCN(c3cc4c(cc3F)c(=O)c(C(=O)O)cn4C3CC3)CC2)nc2ccccc21` , MIC = 2 µg/mL

---

Give MIC for every item shown.
- Tested on: Staphylococcus aureus
- PROTOCOL DETAILS: Antibacterial activity against Staphylococcus aureus ATCC 25923 by micro broth dilution method
- Type: functional
Numbers only, in µg/mL.

compound=CCCn1c(CN2CCN(c3cc4c(cc3F)c(=O)c(C(=O)O)cn4CC)CC2)nc2ccccc21 unit_info=µg/mL number=256

Each compound below has a reported value. Please supply its MIC.
1. O=C(O)c1cn(C2CC2)c2cc(N3CCN(Cc4nc5ccc(Cl)cc5[nH]4)CC3)c(F)cc2c1=O
2. CCCCCCCCCCCCCCCCCCn1c(CN2CCN(c3cc4c(cc3F)c(=O)c(C(=O)O)cn4CC)CC2)nc2ccccc21
3. COC(=O)c1cn(C2CC2)c2cc(N3CCN(/C=N\c4nc5ccccc5[nH]4)CC3)c(F)cc2c1=O
4. CCn1cc(C(=O)O)c(=O)c2cc(F)c(N3CCN(Cc4nc5ccccc5n4Cc4ccccc4Cl)CC3)cc21

Return:
[0.5, 256, 32, 8]

Each compound below has a reported value. Please supply its MIC.
1. O=C(O)c1cn(C2CC2)c2cc(N3CCNCC3)c(F)cc2c1=O [CIPROFLOXACIN]
2. CCn1cc(C(=O)O)c(=O)c2cc(F)c(N3CCN(Cc4nc5ccccc5n4Cc4ccc([N+](=O)[O-])cc4)CC3)cc21
3. CCn1cc(C(=O)O)c(=O)c2cc(F)c(N3CCN(Cc4nc5ccccc5n4Cc4ccc(F)cc4)CC3)cc21
4. O=C(O)c1cn(C2CC2)c2cc(N3CCN(Cc4nc5ccccc5n4Cc4ccc(Cl)cc4Cl)CC3)c(F)cc2c1=O
5. O=C(O)c1cn(C2CC2)c2cc(N3CCN(Cc4nc5ccccc5n4Cc4cccc(F)c4)CC3)c(F)cc2c1=O
6. CCCCCCCCCCn1c(CN2CCN(c3cc4c(cc3F)c(=O)c(C(=O)O)cn4CC)CC2)nc2ccccc21
7. CCn1c(CN2CCN(c3cc4c(cc3F)c(=O)c(C(=O)O)cn4C3CC3)CC2)nc2ccccc21

Return:
0.5
4
8
8
256
32
256

---

- Tested on: Pseudomonas aeruginosa
- PROTOCOL DETAILS: Antibacterial activity against Pseudomonas aeruginosa ATCC 27853 by micro broth dilution method
- Format: functional
ATTRIBUTE MEASURED: log10(MIC) (log10 of the value in µg/mL)
Note the log scale: values are log10 of MIC expressed in µg/mL.

molecule=O=C(O)c1cn(C2CC2)c2cc(N3CCN(Cc4nc5ccccc5n4Cc4ccc(Cl)cc4Cl)CC3)c(F)cc2c1=O number=-0.30
molecule="CCn1cc(C(=O)O)c(=O)c2cc(F)c(N3CCNCC3)cc21 [NORFLOXACIN]" number=1.20
molecule=O=C(O)c1cn(C2CC2)c2cc(N3CCN(Cc4nc5ccccc5n4Cc4ccc([N+](=O)[O-])cc4)CC3)c(F)cc2c1=O number=0.60

Each molecule below has a reported value. Please supply its log10(MIC).
1. CCCCCCCCCCn1c(CN2CCN(c3cc4c(cc3F)c(=O)c(C(=O)O)cn4CC)CC2)nc2ccccc21
2. O=C(O)c1cn(C2CC2)c2cc(N3CCNCC3)c(F)cc2c1=O [CIPROFLOXACIN]
3. CCn1cc(C(=O)O)c(=O)c2cc(F)c(N3CCN(Cc4nc5ccccc5n4Cc4cccc(Cl)c4)CC3)cc21
4. CCCCCCn1c(CN2CCN(c3cc4c(cc3F)c(=O)c(C(=O)O)cn4CC)CC2)nc2ccccc21

Return:
1: 0.60; 2: 0.00; 3: 0.30; 4: 1.20

Lab entry: Pseudomonas aeruginosa assay, molecule `O=C(O)c1cn(C2CC2)c2cc(N3CCN(c4nc5ccccc5[nH]4)CC3)c(F)cc2c1=O` , log10(MIC) = -0.30
